These entries and their values trace back to PubChem BioAssay (NCATS).

Experiment: qHTS assay for small molecule agonists of the antioxidant response element (ARE) signaling pathway (AID 651741); on activation: % of control where 0% means no effect
Details: HepG2 ARE-bla reporter, beta-lactamase FRET ratio, 16 h; series mostly up to 96 µM
Results filed as inconclusive are left out. The source made the active and inactive calls. The call rests on the fitted dose curve; in most records, active means well fitted activation curve with a large enough effect in the signal ratio; inconclusive means small, poorly fitted or top-dose-only effect, or effect the other way, or a change in a side signal; inactive means flat fitted curve, though single readings scatter; the % refers to the signal ratio.
Entry note: the call must match one of TRUE = active, FALSE = inactive

Before answering, review these 5 worked examples.
CCCCCCCCCCCCN(C)C :: FALSE
C1CC[CH]([Sn]([CH]2CCCCC2)[CH]2CCCCC2)CC1 :: TRUE
CCCCC(CC)COC(=O)Cl (configuration not stated) :: FALSE
O=C1C(Cl)=C(Cl)C(=O)c2ccccc21 :: TRUE
CCS(=O)(=O)c1cccnc1S(=O)(=O)NC(=O)Nc1nc(OC)cc(OC)n1 :: TRUE

Exercise: Please indicate how the test categorized CCOP(=S)(S)OCC .
Key: FALSE

Exercise: Please indicate how the test categorized O=P(O)(O)CCCl .
Key: FALSE

###

Test system: W2
Experiment: qHTS profiling for inhibitors of Plasmodium falciparum proliferation (AID 504749); further: nearly all actives have a fitted effect of over 60% in size
Conditions: P. falciparum in erythrocytes, SYBR Green DNA, 72 h; series mostly up to 28.7 µM
Records with an inconclusive call do not appear. Calls of active or inactive are those of the source. Calls follow the shape of the dose curve; as a rule, active = well fitted inhibition curve with a large enough effect; inconclusive = small, poorly fitted or top-dose-only effect; inactive = flat fitted curve, though single readings scatter.
Entry note: the call must match one of active, inactive

Exercise: Please indicate how the test categorized [S]=[Sb][S][Sb]=[S] .
Key: inactive

Exercise: Please indicate how the test categorized C#CC1(O)C=CC2C3CCC4=CC(=O)CCC4C3CCC21CC (stereo unspecified) .
Key: active

Exercise: Please indicate how the test categorized OCC(O)[C@H]1O[C@@H]2O[C@H](C(Cl)(Cl)Cl)O[C@@H]2[C@H]1O (stereo partly specified) .
Key: inactive

Exercise: Please indicate how the test categorized COC(=O)C1C(OC(=O)c2ccccc2)CC2CCC1N2C (stereo unspecified) .
Key: inactive

Exercise: Please indicate how the test categorized CC1(C)S[C@@H]2[C@H](N)C(=O)N2C1C(=O)O (stereo partly specified) .
Key: inactive

Exercise: Please indicate how the test categorized CC(CO)NC(=O)C1C=C2c3cccc4[nH]cc(c34)CC2N(C)C1 (stereo unspecified) .
Key: inactive

Exercise: Please indicate how the test categorized CCC/C=C/C=C/C(=O)OC1/C(=C/C(=O)OC)CC2CC(C(C)O)OC(=O)CC(O)CC3CC(OC(C)=O)C(C)(C)C(O)(CC4C/C(=C/C(=O)OC)CC(/C=C\C(C)(C)C1(O)O2)O4)O3 (stereo unspecified) .
Key: active

Exercise: Please indicate how the test categorized CCCN1CCCC2Cc3nc(N)ncc3CC21 (stereo unspecified) .
Key: inactive

Exercise: Please indicate how the test categorized C#C[C@]1(O)CC[C@H]2[C@@H]3CCC4=CC(=O)CCC4(C)[C@H]3CCC21C (stereo partly specified) .
Key: inactive

Exercise: Please indicate how the test categorized C=CC[N+]1(C)CCC23c4c5ccc(O)c4O[C@H]2C(=O)CC[C@@]3(O)C1C5 (stereo partly specified) .
Key: inactive

Exercise: Please indicate how the test categorized O=C1CC2OCC=C3CN4CC[C@]56c7ccccc7N1C5C2[C@H]3C[C@H]46 (stereo partly specified) .
Key: active

###

Biological target: Cytochrome P450 2C19 (Homo sapiens) (UniProt P33261)
Sequence (P33261 whole entry, looked up): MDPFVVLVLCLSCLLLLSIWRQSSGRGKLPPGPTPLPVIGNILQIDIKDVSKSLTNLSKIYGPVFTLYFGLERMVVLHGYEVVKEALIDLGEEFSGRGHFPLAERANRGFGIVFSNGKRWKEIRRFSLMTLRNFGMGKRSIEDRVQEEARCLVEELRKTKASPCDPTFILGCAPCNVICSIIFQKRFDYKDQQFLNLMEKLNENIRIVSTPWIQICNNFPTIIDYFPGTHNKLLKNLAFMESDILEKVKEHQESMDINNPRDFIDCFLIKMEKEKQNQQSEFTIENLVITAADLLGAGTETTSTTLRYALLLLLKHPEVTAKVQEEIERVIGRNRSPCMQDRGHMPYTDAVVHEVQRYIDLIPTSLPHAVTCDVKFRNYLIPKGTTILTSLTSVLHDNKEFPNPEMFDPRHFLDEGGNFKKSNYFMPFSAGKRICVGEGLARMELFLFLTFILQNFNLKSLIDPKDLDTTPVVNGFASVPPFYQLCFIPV
Experiment: qHTS Assay for Inhibitors and Substrates of Cytochrome P450 2C19 (AID 899); further: nearly all actives have a fitted effect of over 60% in size
Settings: recombinant CYP2C19, luciferin-H EGE luminescence; series mostly up to 57.1 µM
Inconclusive results are not listed. Active and inactive are the calls of the source. The call rests on the fitted dose curve; in most records, active means well fitted inhibition curve with a large enough effect; inconclusive means small, poorly fitted or top-dose-only effect; inactive means no such curve, though single readings can be large or run the other way.
Entry note: the call must match one of active, inactive

CC(C)(C)[C@@]1(O)C[C@@H]2OC(=O)C[C@@]23C(=O)O[C@H]2OC(=O)[C@@H](O)[C@]231 :: inactive
C=C(C)[C@@H]1CN[C@H](C(=O)O)[C@H]1CC(=O)O :: inactive
CC(C)[C@@]1(NC(=O)[C@@H]2C[C@H]3c4cccc5[nH]cc(c45)C[C@@H]3N(C)C2)O[C@@]2(O)[C@H]3CCCN3C(=O)[C@@H](Cc3ccccc3)N2C1=O :: active

# ---- query compound ----
Exercise: Please indicate how the test categorized C[C@@]12CC[C@H]3[C@@H](CCC4=CC(=O)CC[C@]43C)[C@H]1CCC2=O .
Key: inactive

###

Target: Retinoic acid receptor RXR-alpha (Homo sapiens) (UniProt P19793)
Sequence (P19793 whole entry, looked up): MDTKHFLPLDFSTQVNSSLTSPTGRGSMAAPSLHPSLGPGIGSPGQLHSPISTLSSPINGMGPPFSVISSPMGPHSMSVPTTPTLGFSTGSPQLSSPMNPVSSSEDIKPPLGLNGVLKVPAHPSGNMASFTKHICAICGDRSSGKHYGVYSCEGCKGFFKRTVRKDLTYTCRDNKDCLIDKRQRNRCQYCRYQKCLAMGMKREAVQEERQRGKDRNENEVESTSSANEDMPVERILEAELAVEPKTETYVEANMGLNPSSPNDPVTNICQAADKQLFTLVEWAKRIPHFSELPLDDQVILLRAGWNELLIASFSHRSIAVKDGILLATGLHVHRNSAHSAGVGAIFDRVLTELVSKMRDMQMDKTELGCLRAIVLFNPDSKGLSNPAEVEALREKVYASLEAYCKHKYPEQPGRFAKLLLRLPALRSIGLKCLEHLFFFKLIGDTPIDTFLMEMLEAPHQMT
Assay: qHTS assay for small molecule antagonists of retinoid X receptor alpha signaling (AID 588546);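 further: cells stimulated with 9-cis-retinoic acid as agonist; on the % scale 0 is the no-effect control and ±100 the full control effect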
Settings: HEK293T RXRa-UAS-bla, beta-lactamase ratio, antagonist mode
Records with an inconclusive call do not appear.
Readout type: max response (%)
Respond numerically; units are % and should not be typed.

# example entries with known answers
CNc1cnn(-c2cccc(C(F)(F)F)c2)c(=O)c1Cl :: 8.14
CCOP(=O)(OCC)SCCSCC :: 3.44

Exercise: For the compound shown here, N#CC(CCc1ccc(Cl)cc1)(Cn1cncn1)c1ccccc1 (centres undefined) , give the reported max response.
Key: -64.1

Exercise: For the compound shown here, c1cc(OCC2CO2)cc(OCC2CO2)c1 (centres undefined) , give the reported max response.
Key: 5.23

Exercise: For the compound shown here, CCOP(=O)(OCC)OC(Cl)C(Cl)(Cl)Cl (centres undefined) , give the reported max response.
Key: -17.2

###

max response overview
Target: Retinoic acid receptor RXR-alpha (Homo sapiens) (UniProt P19793)
Assay: qHTS assay for small molecule antagonists of retinoid X receptor alpha signaling (AID 588546);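 further: cells stimulated with 9-cis-retinoic acid as agonist; on the % scale 0 is the no-effect control and ±100 the full control effect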
Details: HEK293T RXRa-UAS-bla, beta-lactamase ratio, antagonist mode
Records with an inconclusive call do not appear.
Respond numerically; units are % and should not be typed.

Clc1ccccc1-c1nnc(-c2ccccc2Cl)nn1 :: -5.51

Exercise: For the compound shown here, COc1cnc(OC)n2nc(NS(=O)(=O)c3c(OCC(F)F)cccc3C(F)(F)F)nc12 , give the reported max response.
Key: -13.9

Exercise: For the compound shown here, CC1=C(C(=O)Nc2ccccc2)SCCO1 , give the reported max response.
Key: -6.74

Exercise: For the compound shown here, CC(C)C(=O)OCC(C)(C)C(OC(=O)C(C)C)C(C)C (stereo not drawn) , give the reported max response.
Key: -12.8

Exercise: For the compound shown here, O=[N+]([O-])c1ccc(Oc2ccc(Cl)cc2Cl)cc1 , give the reported max response.
Key: 5.62

Exercise: For the compound shown here, CCOP(=O)(OCC)SCS(=O)(=O)C(C)(C)C , give the reported max response.
Key: 2.18

Exercise: For the compound shown here, CCOP(=O)(OCC)SCSC(C)(C)C , give the reported max response.
Key: -1.69

Exercise: For the compound shown here, COc1nc(C)nc(NC(=O)NS(=O)(=O)c2ccccc2CCC(F)(F)F)n1 , give the reported max response.
Key: -8.68

Exercise: For the compound shown here, CCNc1nc(Cl)nc(NC(C)(C)C#N)n1 , give the reported max response.
Key: -7.14

Exercise: For the compound shown here, CCOP(=O)(O)C(N)=O , give the reported max response.
Key: -9.79

Exercise: For the compound shown here, CCOP(=S)(Oc1cnc(C(C)(C)C)nc1)OC(C)C (stereo not drawn) , give the reported max response.
Key: 1.44

Exercise: For the compound shown here, CCOS(=O)(=O)OCC , give the reported max response.
Key: 4.62

Exercise: For the compound shown here, CCNc1nc(NCC)nc(SC)n1 , give the reported max response.
Key: -3.26

###

Molecular target: Cytochrome P450 3A4 (Homo sapiens)
Assay: qHTS Assay for Activators of Cytochrome P450 3A4 (AID 885); further: nearly all actives have a fitted effect of over 65% in size
Details: recombinant CYP3A4, Luciferin-PPXE luminescence, 60 min; series mostly up to 57.1 µM
Activity calls are given as the source filed them. Calls follow the shape of the dose curve; as a rule, active = well fitted activation curve with a large enough effect; inconclusive = small, poorly fitted or top-dose-only effect; inactive = no such curve, though single readings can be large or run the other way.
Readout type: activity change, positive = activation

# example entries with known answers
Cc1ncc(CN2CC=C(c3ccccc3)CC2)c(N)n1 :: inactive
COC(=O)[C@H]1C(=O)c2ccccc2O[C@@](C(=O)OC)(c2ccccc2)[C@@H]1c1ccccc1 :: -63.3% [at 11.4 µM] (inactive)
COC(=O)NC/C=C\c1nc(CC/C=C\C(=O)O[C@H]2C[C@H]3CC(=O)O[C@@H](/C=C\CC(C)C)C[C@@H]4CC[C@H](C)[C@H](C[C@@H](OC)C[C@H](C2)O3)O4)co1 :: -81.2% [at 11.4 µM] (inactive)
COc1cc2c(cc1OC)-c1c(OC)c(OC)c(C=O)c3c1[C@H](C2)N(C)CC3 :: inactive
COC[C@H]1OC(=O)c2coc3c2[C@@]1(C)C1=C(C3=O)[C@H]2CCC(=O)[C@@]2(C)C[C@H]1OC(C)=O :: inactive

// moving on: another record for activity change, positive = activation
Exercise: Query activity change, positive = activation on Cytochrome P450 3A4 (Homo sapiens) for C=C(CC1(CNP(=O)(c2ccccc2)c2ccccc2)CC1)c1ccccc1
Key: inactive

###

Assay: qHTS profiling for inhibitors of Plasmodium falciparum proliferation (AID 504749); further: nearly all actives have a fitted effect of over 60% in size;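 on activity, negative = inhibition: 0% = DMSO vehicle and full inhibition = artemisinin control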
Settings: P. falciparum in erythrocytes, SYBR Green DNA, 72 h; at 28.7 µM (top of the series); parasite line B
Results filed as inconclusive are left out.
activity, negative = inhibition overview
Respond numerically; units are % and should not be typed.

# example entries with known answers
Cc1ccc2c(c1)[C@@H]1CN(C)CC[C@H]1N2 :: 11.3
CC1(C)[C@@H](C=C(Cl)Cl)[C@@H]1C(=O)OCc1c(F)c(F)cc(F)c1F :: 1.84
CN(C)[C@@H](Cc1ccccc1)c1ccccc1 :: 4.62
CC(CO)NC(=O)C1C=C2c3cccc4[nH]cc(c34)CC2N(C)C1 (stereo unspecified) :: -8.5
CC12CCC3C4CCC(=O)C(O)=C4CCC3C1CCC2OC(=O)CCC1CCCC1 (stereo unspecified) :: -4.5

Exercise: For the compound shown here, CCCC(C)C1(CC)C(=O)NC(=S)NC1=O (stereo unspecified) , give the reported activity, negative = inhibition.
Key: 18

Exercise: For the compound shown here, C=CC[C@]1(O)CCC2C3CCC4=CCCCC4C3CCC21C (stereo partly specified) , give the reported activity, negative = inhibition.
Key: -3.62

Exercise: For the compound shown here, OCC(O)[C@H]1O[C@@H]2O[C@H](C(Cl)(Cl)Cl)O[C@@H]2[C@H]1O (stereo partly specified) , give the reported activity, negative = inhibition.
Key: 3.35

Exercise: For the compound shown here, CN1C2CCC1C(C(=O)O)C(OC(=O)c1ccccc1)C2 (stereo unspecified) , give the reported activity, negative = inhibition.
Key: 6.56

Exercise: For the compound shown here, C[C@H](N)Cc1ccccc1 , give the reported activity, negative = inhibition.
Key: -0.429

Exercise: For the compound shown here, O=[N+]([O-])OC1CO[C@H]2C(O[N+](=O)[O-])COC12 (stereo partly specified) , give the reported activity, negative = inhibition.
Key: 1.56
